# PROCEDURE_SUMMARY: NCI Yeast Anticancer Drug Screen. Data for the rad50 strain (AID 155);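 note: 0% = growth of vehicle-only cultures of the same strain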
# CONDITION: S. cerevisiae rad50 strain growth inhibition, stronger effect = higher value; at 50.0 µM unless noted
Compounds without any hit were thinned out: in the full panel of roughly 79,000, 15% have a hit.
Would you please tag the item Y when its growth inhibition is -10% or above, and N when it is below?

Query block: Has CN1CCN(C(=S)N(C)C(=O)c2ccco2)CC1 a recorded growth inhibition greater than or equal to -10%?
Result block: N

Query block: Has NC(=O)C1(N2CCCC2)CCN(Cc2ccccc2)CC1 a recorded growth inhibition greater than or equal to -10%?
Result block: Y

Query block: Has CSc1c(C)n2c3c(cccc13)CCC2 a recorded growth inhibition greater than or equal to -10%?
Result block: Y

Query block: Has NC(=O)Nc1ccc(/C=C\c2ccnc3ccccc23)cc1 a recorded growth inhibition greater than or equal to -10%?
Result block: N

Query block: Has CCN(CC)Cc1cc(O)ccc1NCCCNc1ccnc2cc(Cl)ccc12 a recorded growth inhibition greater than or equal to -10%?
Result block: Y

Query block: Has CN(C)C(Cc1cnc[nH]1)C(=O)N1CCCC1C(N)=O (stereo unspecified) a recorded growth inhibition greater than or equal to -10%?
Result block: N

----------
# PROCEDURE_SUMMARY: NCI Yeast Anticancer Drug Screen. Data for the cln2 rad14 strain (AID 165);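 note: 0% = growth equal to vehicle treated cultures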
# CONDITION: S. cerevisiae cln2 rad14 strain, stronger effect = higher value; at 50.0 µM unless noted
Compounds without any hit were thinned out: in the full panel of roughly 79,000, 15% have a hit.
Would you please tag the item condition met when its growth inhibition is 30% or above, and condition not met when it is below?

Query block: Has CCCCN=C(N)C(N)=NCCCC a recorded growth inhibition greater than or equal to 30%?
Result block: condition not met

Query block: Has Nc1ncnc2c1ncn2C1OC(CSCC(F)(F)F)C(O)C1O (stereo unspecified) a recorded growth inhibition greater than or equal to 30%?
Result block: condition not met

Query block: Has CC(=O)Nc1cccc(OC(=O)Nc2ccc(F)c(Cl)c2)c1 a recorded growth inhibition greater than or equal to 30%?
Result block: condition met

Query block: Has O=C(O)c1c[nH]c2cc(OCc3ccc4ccccc4c3)ccc2c1=O a recorded growth inhibition greater than or equal to 30%?
Result block: condition not met

Query block: Has Cc1ccc(S(=O)(=O)c2c3[nH]c4ccccc4nc3n3c2nc2ccccc23)cc1 a recorded growth inhibition greater than or equal to 30%?
Result block: condition not met

Query block: Has O=C(NO)c1ccccc1 a recorded growth inhibition greater than or equal to 30%?
Result block: condition not met

----------
# PROCEDURE_SUMMARY: NCI Yeast Anticancer Drug Screen. Data for the mec2-1 strain (AID 157)
# CONDITION: S. cerevisiae mec2-1 strain, stronger effect = higher value; at 50.0 µM unless noted
About 79,000 compounds went through this panel and 15% of them were active in at least one assay; those are over-represented in the sample as a whole.
For each record, write down the corresponding growth inhibition.
Numeric only. Scale: %

Query block: Could you please provide reported growth inhibition for Cn1c(=O)c2[nH]c(Nc3cccc(Cl)c3)nc2n(C)c1=O ? Thanks!
Result block: 8.75

Query block: Could you please provide reported growth inhibition for Cc1cc[nH]c(=O)c1[N+](=O)[O-] ? Thanks!
Result block: -10.8

Query block: Could you please provide reported growth inhibition for O=c1[nH]c2ccc([N+](=O)[O-])cc2nc1/C(=N/Nc1ccccc1)C(O)c1ccco1 (configuration not stated) ? Thanks!
Result block: -9.1

Query block: Could you please provide reported growth inhibition for CC1C(c2ccccc2)OCCN1C(=S)Nc1ccccc1 (configuration not stated) ? Thanks!
Result block: 34.2

Query block: Could you please provide reported growth inhibition for Cc1nc2cccc3ccc4c5ccccc5cc1c4c32 ? Thanks!
Result block: 15.2

Query block: Could you please provide reported growth inhibition for C(=Nc1cccnc1)c1ccc(C=Nc2cccnc2)cc1 ? Thanks!
Result block: 37.5

Query block: Could you please provide reported growth inhibition for CCCCCCCSCC(=O)OCC ? Thanks!
Result block: -19.8

Query block: Could you please provide reported growth inhibition for CC(C)N(C(C)C)S(C)(=O)=O ? Thanks!
Result block: -0.5

Query block: Could you please provide reported growth inhibition for Fc1ccc2c(c1)-c1ccccc1C2 ? Thanks!
Result block: -14.6

Query block: Could you please provide reported growth inhibition for Cc1cccc(C)c1NC(=O)Nc1ccccc1C(N)=O ? Thanks!
Result block: 22.8

Query block: Could you please provide reported growth inhibition for O=C(Nc1ccc(Cl)cc1Cl)c1cc2nc3ccccc3c(=O)n2c2ccccc12 ? Thanks!
Result block: 13.6

Query block: Could you please provide reported growth inhibition for O=C(NC1(Sc2ccccc2)CC1)c1ccc(Cl)cc1 ? Thanks!
Result block: 6.8

----------
# PROCEDURE_SUMMARY: NCI Yeast Anticancer Drug Screen. Data for the cln2 rad14 strain (AID 165);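 note: 0% = growth equal to vehicle treated cultures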
# CONDITION: S. cerevisiae cln2 rad14 strain, stronger effect = higher value; at 50.0 µM unless noted
Compounds without any hit were thinned out: in the full panel of roughly 79,000, 15% have a hit. Where a SMILES comes first, the peptide text is derived from it. The star is where a group is joined. Boc = CC(C)(C)OC(=O)*
MEASUREMENT_KIND: growth inhibition (%)
Numeric only. Scale: %

Query block: Could you please provide reported growth inhibition for OCC1OC(n2cnc3c(/C=C(/O)c4ccccc4)ncnc32)C(O)C1O (configuration not stated) ? Thanks!
Result block: -13.5

Query block: Could you please provide reported growth inhibition for NNC(=O)c1nnn(CCc2ccccc2)c1C(=O)NN ? Thanks!
Result block: 5.55

Query block: Could you please provide reported growth inhibition for CCCCCSC(=O)C(N)=O ? Thanks!
Result block: -25.8

Query block: Could you please provide reported growth inhibition for Cc1nc2c(c(=O)[nH]1)C(c1ccccc1)C(C)(C)O2 (configuration not stated) ? Thanks!
Result block: -4.5

Query block: Could you please provide reported growth inhibition for c1ccc(C2=NN(c3ccccc3)CC2)cc1 ? Thanks!
Result block: 9.25

Query block: Could you please provide reported growth inhibition for COc1ccc(N=C=Nc2ccc(OC)cc2)cc1 ? Thanks!
Result block: 9.6

Query block: Could you please provide reported growth inhibition for COC1OC(CO)C(O)C(O)C1OS(=O)(=O)c1ccc(C)cc1 (configuration not stated) ? Thanks!
Result block: 1.75

Query block: Could you please provide reported growth inhibition for COC(=O)C(Cc1c[nH]c2ccccc12)NC(=O)C(Cc1c[nH]c2ccccc12)NC(=O)C(Cc1c[nH]c2ccccc12)NC(=O)C(Cc1c[nH]c2ccccc12)NC(=O)C(Cc1c[nH]c2ccccc12)NC(=O)C(Cc1c[nH]c2ccccc12)NC(=O)OC(C)(C)C (configuration not stated) (Boc-WWWWWW-OMe; configuration not given here) ? Thanks!
Result block: 7.25

Query block: Could you please provide reported growth inhibition for COc1ccc(Cl)cc1NC(=O)Oc1ccc(NC(C)=O)cc1 ? Thanks!
Result block: -1.3

Query block: Could you please provide reported growth inhibition for CN1C(=O)n2c(nc3ccccc32)C(Cl)(Cl)C1=O ? Thanks!
Result block: 20.4

Query block: Could you please provide reported growth inhibition for CCSc1nnc(SCC)c2c1ncn2CC ? Thanks!
Result block: -39.8

Query block: Could you please provide reported growth inhibition for CCCCCCCCCCCCCCCCS(=O)(=O)N(/N=c1/sc2ccccc2n1C)C(=O)OCC ? Thanks!
Result block: 21.4

Query block: Could you please provide reported growth inhibition for CCOC(=O)c1cnc(NN)[nH]c1=O ? Thanks!
Result block: -46.4

Query block: Could you please provide reported growth inhibition for CC1C(C)(C)C23CC12C1(OCCO1)C3Br (configuration not stated) ? Thanks!
Result block: 14.6

Query block: Could you please provide reported growth inhibition for CCCCCOC1OC(=O)C(Cl)=C1Cl (configuration not stated) ? Thanks!
Result block: 61.7

Query block: Could you please provide reported growth inhibition for CCOC(=O)c1ccc(N=Cc2ccc(N(CCC#N)CCC#N)cc2)cc1 ? Thanks!
Result block: 3.7

Query block: Could you please provide reported growth inhibition for O=C(CNC(=O)C(Cc1ccccc1)N1C(=O)c2ccccc2C1=O)Nc1ccccc1 (configuration not stated) ? Thanks!
Result block: 5

Query block: Could you please provide reported growth inhibition for COC(=O)[C@H]1C2CC[C@@H]3C45C[C@@H](c6ccoc6)O[C@@H]4O[C@@H](O2)C31CCC5C (some centres not stated) ? Thanks!
Result block: 5

Query block: Could you please provide reported growth inhibition for Cc1ccc(OS(=O)(=O)c2cccc(S(=O)(=O)Oc3ccc(C)cc3)c2)cc1 ? Thanks!
Result block: 7.7

Query block: Could you please provide reported growth inhibition for Nc1ncc2c(n1)-c1ccccc1OC2 ? Thanks!
Result block: -1.4

Query block: Could you please provide reported growth inhibition for CC(C)OC(=O)c1ccc(CCC2=CC(=O)C(Br)=CC2=O)cc1 ? Thanks!
Result block: 56

Query block: Could you please provide reported growth inhibition for O=C(O)C[N-]CC(=O)O.OO.[O]=[V] ? Thanks!
Result block: -30.7
